Every entry's value here was drawn from ChEMBL document CHEMBL1828552.

# Test system: Shigella flexneri
# assay_name: Antibacterial activity against 10^5 CFU/mL Shigella flexneri MTCC 1457 after 24 hrs by disc diffusion technique
# Assay type: functional
result_type: inhibition zone (IZ) (mm)
Numbers only, in mm.

CCN1CCN(c2nc(Nc3ccc(C#N)c(C(F)(F)F)c3)nc(Oc3ccnc4ccccc34)n2)CC1 ... 13
CC(=O)N1CCN(c2nc(Nc3ccc(C#N)c(C(F)(F)F)c3)nc(Oc3ccnc4ccccc34)n2)CC1 ... 23

Now look at this one.
Could you share which inhibition zone (IZ) value was measured for "N#Cc1ccc(Nc2nc(Oc3ccnc4ccccc34)nc(N3CCN(c4ccc(F)cc4)CC3)n2)cc1C(F)(F)F" ?
21
